target: hNR2B (Homo sapiens, UniProt Q05586+Q13224); construct: expressed in transfected cells; host or cells: Xenopus laevis oocytes, cRNA-injected; assay: Electrophysiology NMDA receptor experiments: two electrode voltage-clamp in Xenopus laevis oocytes, hNR2B IC50; type: cell-based; conditions: hNR2B activity class, 50 μM glutamate, 30 μM glycine, read-out: Activity
Sequence (Q13224 27-1484, other chains not shown): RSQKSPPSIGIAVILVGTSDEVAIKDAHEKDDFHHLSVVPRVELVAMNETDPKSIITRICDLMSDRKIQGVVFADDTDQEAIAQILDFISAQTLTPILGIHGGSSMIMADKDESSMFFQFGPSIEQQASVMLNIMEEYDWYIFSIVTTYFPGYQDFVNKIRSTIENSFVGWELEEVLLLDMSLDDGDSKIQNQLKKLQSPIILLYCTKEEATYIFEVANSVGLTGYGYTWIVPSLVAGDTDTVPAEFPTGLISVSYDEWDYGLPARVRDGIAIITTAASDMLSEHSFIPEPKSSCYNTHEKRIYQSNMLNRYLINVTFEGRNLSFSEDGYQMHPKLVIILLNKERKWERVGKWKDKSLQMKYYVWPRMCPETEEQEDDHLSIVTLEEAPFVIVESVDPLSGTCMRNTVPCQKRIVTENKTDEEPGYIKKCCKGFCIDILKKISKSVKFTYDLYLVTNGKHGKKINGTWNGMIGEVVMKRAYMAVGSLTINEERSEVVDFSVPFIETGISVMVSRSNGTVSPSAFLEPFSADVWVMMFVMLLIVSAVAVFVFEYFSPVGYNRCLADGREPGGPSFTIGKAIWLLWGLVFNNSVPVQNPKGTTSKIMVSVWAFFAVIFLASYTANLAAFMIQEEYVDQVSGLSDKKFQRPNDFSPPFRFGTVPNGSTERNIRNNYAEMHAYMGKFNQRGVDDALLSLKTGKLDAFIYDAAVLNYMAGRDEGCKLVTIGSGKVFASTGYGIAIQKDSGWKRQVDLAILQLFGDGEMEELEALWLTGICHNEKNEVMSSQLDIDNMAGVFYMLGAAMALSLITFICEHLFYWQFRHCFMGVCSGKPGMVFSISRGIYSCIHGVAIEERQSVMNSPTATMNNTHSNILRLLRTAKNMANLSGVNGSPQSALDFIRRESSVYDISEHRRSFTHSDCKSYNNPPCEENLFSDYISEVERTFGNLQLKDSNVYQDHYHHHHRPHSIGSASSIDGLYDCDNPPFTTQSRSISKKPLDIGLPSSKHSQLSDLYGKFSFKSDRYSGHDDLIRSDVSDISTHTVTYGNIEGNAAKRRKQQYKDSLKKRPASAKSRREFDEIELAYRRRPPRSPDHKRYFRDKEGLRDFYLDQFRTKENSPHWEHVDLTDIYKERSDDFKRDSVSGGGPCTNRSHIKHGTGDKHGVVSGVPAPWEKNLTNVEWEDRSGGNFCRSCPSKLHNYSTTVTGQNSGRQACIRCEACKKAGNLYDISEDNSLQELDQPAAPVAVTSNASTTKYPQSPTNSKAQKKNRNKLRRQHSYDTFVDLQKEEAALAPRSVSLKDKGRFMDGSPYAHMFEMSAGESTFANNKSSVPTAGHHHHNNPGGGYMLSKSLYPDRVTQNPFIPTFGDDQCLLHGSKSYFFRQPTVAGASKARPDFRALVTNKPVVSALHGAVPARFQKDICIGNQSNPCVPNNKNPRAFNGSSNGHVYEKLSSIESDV
REPORTED_PROPERTY: IC50

O=C1CCc2cc(OCc3nnc(Nc4ccc(Cl)cc4)[nH]3)ccc2N1 [Example 283] = 0.201 to 1 µM
O=c1ccc2cc(OCc3nnc(NCc4ccc(C(F)(F)F)cc4)o3)ccc2[nH]1 [Example 76] = < 0.2 µM
Oc1ccc(CCc2nc(Nc3ccc(OC(F)F)cc3)no2)cc1 [Example 226] = 0.201 to 1 µM
CC(Oc1ccc2[nH]c(=O)ccc2c1)c1nnc(Nc2ccc(Cl)c(Cl)c2)o1 (single isomer, unassigned) [Example 109] = < 0.2 µM
O=c1ccc2cc(OCc3nnc(Nc4ccc(Cl)cc4)s3)ccc2[nH]1 [Example 244] = < 0.2 µM

Now for a further compound.
What IC50 appears in the records for this compound with hNR2B (Homo sapiens, UniProt Q05586+Q13224)? O=c1cnc2cc(OCc3nnc(Nc4ccc(C(F)(F)F)cc4)o3)ccc2[nH]1 [Example 124]
1 to 10 µM

----------
target: hNR2B (Homo sapiens, UniProt Q05586+Q13224); construct: expressed in transfected cells; host or cells: Xenopus laevis oocytes, cRNA-injected; test: Electrophysiology NMDA receptor experiments: two electrode voltage-clamp in Xenopus laevis oocytes, hNR2B IC50; assay type: cell-based; conditions: hNR2B activity class, 50 μM glutamate, 30 μM glycine, read-out: Activity
pIC50: −log10 of the molar value.
REPORTED_PROPERTY: pIC50

Some solved cases for reference:
O=C1COc2cc(OCc3nnc(Nc4ccc(OC(F)(F)F)cc4)o3)ccc2N1 = 6.00 to 6.70
O=c1ccc2cc(OCc3nnc(Nc4ccc(F)c(Cl)c4)o3)ccc2[nH]1 = 6.00 to 6.70

For the molecule shown here, "O=c1ccc2cc(OCc3nnc(NCc4ccc(Cl)c(Cl)c4)s3)ccc2[nH]1" , give the reported pIC50.
6.00 to 6.70

----------
target: hNR2B (Homo sapiens, UniProt Q05586+Q13224); construct: expressed in transfected cells; host or cells: Xenopus laevis oocytes, cRNA-injected; assay: Electrophysiology NMDA receptor experiments: two electrode voltage-clamp in Xenopus laevis oocytes, hNR2B IC50; assay type: cell-based; settings: hNR2B activity class, 50 μM glutamate, 30 μM glycine, read-out: Activity
# Lookup of reported IC50 keyed by entry

Oc1ccc(OCc2nc(Nc3ccc(Cl)c(Cl)c3)no2)cc1 [Example 184] = 1000 to 10000 nM
FC(F)Oc1ccc(Nc2cc(COc3ccc4[nH]ncc4c3)on2)cc1Cl [Example 258] = < 200 nM
O=c1ccc2cc(OCc3nnc(NCc4c(Cl)cccc4Cl)o3)ccc2[nH]1 [Example 70] = 1000 to 10000 nM
O=c1ccc2cc(OCc3nnc(Nc4ccc(Oc5ccccc5)cc4)o3)ccc2[nH]1 [Example 91] = 1000 to 10000 nM
O=c1ccc2cc(OCc3nnc(Nc4ccc(OC(F)F)c(Cl)c4)o3)ccc2[nH]1 [Example 87] = < 200 nM

For the molecule shown here, Cc1cc(Nc2nnc(COc3ccc4[nH]c(=O)ccc4c3)o2)ccc1F [Example 90] , give the reported IC50.
201 to 1000 nM

Then what about the molecule O=c1ccc2cc(OCc3nnc(NCc4ccc(OC(F)F)cc4)o3)ccc2[nH]1 [Example 27] ?
< 200 nM

Then what about the molecule Fc1cc(Nc2noc(C3CC3c3ccc4[nH]ncc4c3)n2)ccc1OC(F)F (stereo not drawn) [Example 238] ?
< 200 nM

Then what about the molecule O=c1ccc2cc(OCc3nnc(NCc4ccc(Cl)c(Cl)c4)o3)ccc2[nH]1 [Example 22] ?
< 200 nM
